Biological target: T1, PUF4 RNA-binding domain (Saccharomyces cerevisiae, UniProt P25339 537-888)
T1 sequence: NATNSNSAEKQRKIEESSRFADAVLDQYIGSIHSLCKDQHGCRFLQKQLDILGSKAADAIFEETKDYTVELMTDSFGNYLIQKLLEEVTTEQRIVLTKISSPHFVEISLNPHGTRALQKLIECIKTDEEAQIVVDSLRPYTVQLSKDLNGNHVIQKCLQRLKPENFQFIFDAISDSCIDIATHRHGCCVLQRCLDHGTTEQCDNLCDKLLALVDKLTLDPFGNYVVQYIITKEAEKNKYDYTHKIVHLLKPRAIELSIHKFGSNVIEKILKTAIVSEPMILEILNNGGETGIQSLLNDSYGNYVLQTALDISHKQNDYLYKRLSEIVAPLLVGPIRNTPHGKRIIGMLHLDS
Assay: Mg; RNA-MaP; 20 mM Na-HEPES pH 7.4, 30 mM KOAc, 0.75 mM MgCl2, 0.1% Tween-20, 5% glycerol, 0.1 mg/mL BSA, 2 mM DTT; 25 C; 0.0125-409.6 nM protein
Settings: tags: N-His6-TEV cleaved; C-SNAP kept, Cy3B-labelled; label: tethered on chip by stalled RNA polymerase
Kd values by entry
Field format: number, assumed nM, no unit text.

[[record]]
binder = "UCUCUUUGUUCAUUAUUAUCUCUU (ssRNA) [Ie_S1_P5E.1_K5.1_C5.1_H5.1_[+3TC]_A5.1_F5.1_T5.1]"
endpoint_value = 10.9

[[record]]
binder = "Id_ii_S2_P4E.3_K4.2_C4.2_[C-2A]_H4.2_A4.1_F4.1_T4.2_[G10C]_[T11A] (ssRNA) RNA: UUUGAUUAAUAUGAUAUCGUUCUUUCUAUUAUAUAUUACAUUCUUUCUCGAUAUCAUAUUAAUCUUU"
endpoint_value = 18.2

[[record]]
binder = "Ie_S2_P3E.2_K3.1_C3.2_H3.1_[+4CCTC]_A3.1_F3.1_T3.2 (ssRNA) RNA: UUUGAUUAAUAUGAUAUCGUUCUUUCUCUUGUACCUCUAUAUAUUCUUUCUCGAUAUCAUAUUAAUCUUU"
endpoint_value = 4.82

[[record]]
binder = "UCUCUUAUUGUAUAUUAUGUCUCUU (ssRNA) [Id_ii_S1_P4E.2_K4.1_C4.2_[C-2A]_H4.1_A4.1_F4.1_T4.2_[G10T]_[T11G]]"
endpoint_value = 1.27


Consider the record given below.
Given the binder UCUCUUUGCUCUUAUAUUAUCUCUU (ssRNA) [Ie_S1_P4E.1_K4.1_C4.1_H4.1_[+2CTCT]_A4.1_F4.1_T4.1] , write its reported Kd.
984
